# Assay System: T1, rhesus monkey CD203c His-tagged recombinant protein (rhesus monkey, UniProt F6TH66 31-874)
# T1 construct: also called rhesus CD203c; not shown: His tag
# T1 sequence: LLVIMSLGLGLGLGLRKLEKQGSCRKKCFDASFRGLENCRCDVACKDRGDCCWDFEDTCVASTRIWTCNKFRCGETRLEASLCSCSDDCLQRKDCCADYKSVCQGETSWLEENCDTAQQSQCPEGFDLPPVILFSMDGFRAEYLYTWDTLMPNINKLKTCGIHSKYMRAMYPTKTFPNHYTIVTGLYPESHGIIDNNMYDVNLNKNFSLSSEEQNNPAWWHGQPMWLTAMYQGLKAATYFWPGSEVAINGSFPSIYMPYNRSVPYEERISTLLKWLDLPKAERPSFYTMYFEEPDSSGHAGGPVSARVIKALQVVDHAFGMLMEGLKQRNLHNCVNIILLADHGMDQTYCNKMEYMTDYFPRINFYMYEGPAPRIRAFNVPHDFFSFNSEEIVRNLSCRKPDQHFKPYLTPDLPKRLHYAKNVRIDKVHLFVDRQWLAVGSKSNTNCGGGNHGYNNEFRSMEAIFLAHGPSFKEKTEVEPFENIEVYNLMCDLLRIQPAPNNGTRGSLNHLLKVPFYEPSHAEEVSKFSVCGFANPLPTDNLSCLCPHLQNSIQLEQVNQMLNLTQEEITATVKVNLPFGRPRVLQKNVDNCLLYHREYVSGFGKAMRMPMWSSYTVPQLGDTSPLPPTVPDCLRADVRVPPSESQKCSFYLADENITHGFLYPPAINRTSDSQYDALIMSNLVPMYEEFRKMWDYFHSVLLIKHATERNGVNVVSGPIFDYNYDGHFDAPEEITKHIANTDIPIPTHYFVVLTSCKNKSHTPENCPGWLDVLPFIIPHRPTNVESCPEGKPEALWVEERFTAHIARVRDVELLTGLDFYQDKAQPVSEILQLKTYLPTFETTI
# Test Summary: direct binding ELISA on rhesus CD203c, absorbance (blank corrected)
Measured Property: binding result

binder="26 (antibody, V domains shown, also called variant 26; 26 VH domain) VH: EVQLVQSGAEVKKPGESLKISCKGSGYRFASHWIGWVRQMPGKGLEWMGEIYPGDSDTRISPSFQGQVTISADKSISTAYLQWSSLKASDTAMYYCARKDYYYYAMDVWGQGTTVTVSS VL: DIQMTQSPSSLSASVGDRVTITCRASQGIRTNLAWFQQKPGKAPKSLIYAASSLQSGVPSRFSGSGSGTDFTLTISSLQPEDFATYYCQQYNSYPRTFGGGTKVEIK" recorded_result=binds
binder="17 (antibody, V domains shown, also called variant 17; 17 VH domain) VH: EVQLVQSGAEVKKPGESLKISCKGSGYRFTSYWIGWVRQMPGKGLEWMGIIYPGDSDTRYSPSFQGQVTISADKSISTAYLQWSSLKASDTAMYYCARKDYYYNAMPVWGQGTTVTVSS VL: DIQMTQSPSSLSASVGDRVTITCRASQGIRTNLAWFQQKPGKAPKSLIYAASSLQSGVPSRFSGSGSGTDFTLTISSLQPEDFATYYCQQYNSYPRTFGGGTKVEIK" recorded_result=binds

Cited source: patent US20260028424A1
